# Measured On: human TLR7 (Homo sapiens (Human), UniProt Q9NYK1)
# Sequence (Q9NYK1 27-1049): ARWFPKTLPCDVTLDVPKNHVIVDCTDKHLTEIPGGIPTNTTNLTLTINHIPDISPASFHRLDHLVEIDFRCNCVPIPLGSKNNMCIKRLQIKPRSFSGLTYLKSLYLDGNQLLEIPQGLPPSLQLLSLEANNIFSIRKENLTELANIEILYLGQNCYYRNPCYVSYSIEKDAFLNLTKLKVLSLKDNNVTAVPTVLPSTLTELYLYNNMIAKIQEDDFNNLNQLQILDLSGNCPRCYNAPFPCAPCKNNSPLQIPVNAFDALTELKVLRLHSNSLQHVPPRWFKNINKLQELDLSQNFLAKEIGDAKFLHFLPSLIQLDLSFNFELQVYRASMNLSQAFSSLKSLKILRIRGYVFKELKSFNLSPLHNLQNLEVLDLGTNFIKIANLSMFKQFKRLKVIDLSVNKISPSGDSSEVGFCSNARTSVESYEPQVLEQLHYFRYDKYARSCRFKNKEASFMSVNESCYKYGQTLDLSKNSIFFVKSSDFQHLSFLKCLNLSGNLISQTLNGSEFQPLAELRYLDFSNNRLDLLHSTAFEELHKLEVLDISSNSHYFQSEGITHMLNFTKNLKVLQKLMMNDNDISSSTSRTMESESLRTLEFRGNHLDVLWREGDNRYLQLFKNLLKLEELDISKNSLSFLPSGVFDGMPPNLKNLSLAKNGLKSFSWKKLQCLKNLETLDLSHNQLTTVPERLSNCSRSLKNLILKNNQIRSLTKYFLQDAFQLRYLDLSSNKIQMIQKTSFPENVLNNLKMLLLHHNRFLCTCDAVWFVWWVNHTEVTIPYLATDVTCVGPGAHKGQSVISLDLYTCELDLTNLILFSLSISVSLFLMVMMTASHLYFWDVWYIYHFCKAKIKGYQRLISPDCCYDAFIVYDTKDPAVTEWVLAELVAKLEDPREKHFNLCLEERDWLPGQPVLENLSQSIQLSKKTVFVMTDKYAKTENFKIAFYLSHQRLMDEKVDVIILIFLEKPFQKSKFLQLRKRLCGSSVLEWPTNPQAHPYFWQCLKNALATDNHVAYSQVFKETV
# Test Summary: TLR7 inhibition reporter assay (HEK-Blue, SEAP)
# Condition Parameters: HEK-Blue cells overexpressing human TLR7, gardiquimod 7.5 μM stimulation
Measurement Kind: pIC50
Lab note — pIC50 values are minus log10 of concentrations in M.

Req: Record lookup: for human TLR7 (Homo sapiens (Human), UniProt Q9NYK1), what pIC50 belongs to COc1ccc(-c2[nH]c3ccc(-c4ccc(OCCCN(C)C)nc4)cc3c2C(C)C)cc1OC ?
Resp: 7.20

Req: Record lookup: for human TLR7 (Homo sapiens (Human), UniProt Q9NYK1), what pIC50 belongs to COc1ccc(-c2[nH]c3ccc(-c4nnc(C5CCCN(C)C5)o4)cc3c2C(C)C)cc1OC (stereo not drawn) ?
Resp: 7.41

Req: Record lookup: for human TLR7 (Homo sapiens (Human), UniProt Q9NYK1), what pIC50 belongs to COc1ccc(-c2[nH]c3ccc(-c4ccc(C5=CCN(C)CC5)cc4)cc3c2C)cc1OC ?
Resp: 5.54

* * *

# Measured On: human TLR7 (Homo sapiens (Human))
# Test Summary: TLR7 inhibition reporter assay (HEK-Blue, SEAP)
# Condition Parameters: HEK-Blue cells overexpressing human TLR7, gardiquimod 7.5 μM stimulation
I'd appreciate it if you could supply pIC50 values for the items below.
Lab note — pIC50 values are minus log10 of concentrations in M.

Req: Endpoint output: pIC50 of Cc1cc(-c2[nH]c3ccc(-c4nc(C(=O)NC5CCN(C(C)C)CC5)co4)cc3c2C(C)C)cc(C)n1 . Value?
Resp: 7.57

Req: Endpoint output: pIC50 of CN[C@@H](C)c1nnc(-c2ccc3[nH]c(-c4ccc(OC)c(OC)c4)c(C(C)C)c3c2)o1 . Value?
Resp: 6.77

Req: Endpoint output: pIC50 of COc1ccc(-c2[nH]c3ccc(-c4cccc(-c5cccc(CN6CCOCC6)c5)c4)cc3c2C(C)C)cc1OC . Value?
Resp: 5.64

Req: Endpoint output: pIC50 of COc1ccc(-c2[nH]c3ccc(-c4cccc(-c5cccc(CN(C)C)c5)c4)cc3c2C(C)C)cc1OC . Value?
Resp: 5.48

Req: Endpoint output: pIC50 of CC(=O)N1CCCN(Cc2nnc(-c3ccc4[nH]c(-c5ccnc6[nH]ncc56)c(C(C)C)c4c3)o2)CC1 . Value?
Resp: 5.85

Req: Endpoint output: pIC50 of Cc1cc(-c2[nH]c3ccc(-c4nnc([C@@H]5Cc6ccccc6CN5)o4)cc3c2C(C)C)ccn1 . Value?
Resp: 6.11

Req: Endpoint output: pIC50 of Cc1cc(-c2[nH]c3ccc(-c4nnc(C(=O)N5CCC(NC(C)C)CC5)o4)cc3c2C(C)C)cc(C)n1 . Value?
Resp: 7.41

Req: Endpoint output: pIC50 of COc1ccc(-c2[nH]c3ccc(-c4ccnc(C(=O)N5CCNCC5)c4)cc3c2C(C)C)cc1OC . Value?
Resp: 5.97

Req: Endpoint output: pIC50 of C#CCN(C)Cc1nnc(-c2ccc3[nH]c(-c4ccc(OC)c(OC)c4)c(C(C)C)c3c2)o1 . Value?
Resp: 6.15

Req: Endpoint output: pIC50 of COc1ccc(-c2[nH]c3ccc(-c4nnc(C(=O)NCCCn5ccnc5)o4)cc3c2C(C)C)cc1OC . Value?
Resp: 7.26
